# Experimental system: hCPT2 (Homo sapiens, UniProt P23786)
# Sequence (P23786 26-658): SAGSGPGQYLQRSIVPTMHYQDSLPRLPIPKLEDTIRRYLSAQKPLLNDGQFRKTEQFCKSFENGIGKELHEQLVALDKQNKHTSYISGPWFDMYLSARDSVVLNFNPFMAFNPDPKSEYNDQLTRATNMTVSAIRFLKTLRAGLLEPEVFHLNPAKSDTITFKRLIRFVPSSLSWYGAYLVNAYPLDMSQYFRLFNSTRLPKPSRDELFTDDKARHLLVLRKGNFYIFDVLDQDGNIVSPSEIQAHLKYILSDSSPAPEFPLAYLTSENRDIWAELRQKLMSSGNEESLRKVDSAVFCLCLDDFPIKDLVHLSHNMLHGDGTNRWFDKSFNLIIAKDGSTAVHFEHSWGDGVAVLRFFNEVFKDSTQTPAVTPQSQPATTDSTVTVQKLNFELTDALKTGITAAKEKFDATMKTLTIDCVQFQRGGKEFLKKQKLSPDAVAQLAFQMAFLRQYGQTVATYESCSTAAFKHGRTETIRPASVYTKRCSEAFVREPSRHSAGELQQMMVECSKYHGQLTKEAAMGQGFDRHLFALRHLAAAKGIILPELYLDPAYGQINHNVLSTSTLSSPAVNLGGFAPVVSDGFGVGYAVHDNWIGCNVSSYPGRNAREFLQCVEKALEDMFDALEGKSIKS
# Assay protocol: hCPT2 inhibition (spectrophotometric DTNB CPT activity assay)
# Details: human CPT2 expressed in P. pastoris, cell extract; carnitine 500 μM, palmitoyl-CoA 80 μM, DTNB 300 μM
# Description: The following tests were carried out in order to determine the activity of the compounds of the present invention. Background information on the performed assays can be found in: Jackson et al., 1999, Biochem. J. 341, 483-489 and Jackson et al., 2000, J. Biol. Chem. 275, 19560-19566. […] CPT activity was measured using a spectrophotometric assay using 5,5′-dithio-bis-(2-nitrobenzoic acid) (DTNB) also called Ellman's reagent. […]
In this section, each of the compounds is paired with its reported IC50.
Report as a plain number; the unit µM is understood.

Here are 2 compounds together with their reported answers.
# lookup: IC50 of C[N+](C)(C)C[C@@H](CC(=O)[O-])NC(=O)CCCCCCCOCc1ccc(-c2ccccc2)cc1 0.0012

Return reported IC50; argument: C[N+](C)(C)C[C@@H](CC(=O)[O-])NC(=O)CCCCCCCOCc1ccc(F)cc1F 0.298

Continuing:
Need IC50 of C[N+](C)(C)C[C@@H](CC(=O)[O-])NC(=O)CCCCCCCCCc1ccc(C(F)(F)F)cc1 , thanks. 0.125

IC50 for C[N+](C)(C)C[C@@H](CC(=O)[O-])NC(=O)CCCCCCCOCc1cc(F)ccc1F ? 0.125

---

# Experimental system: UniProt P23786
# Assay protocol: hCPT2 inhibition (spectrophotometric DTNB CPT activity assay)
# Details: human CPT2 expressed in P. pastoris, cell extract; carnitine 500 μM, palmitoyl-CoA 80 μM, DTNB 300 μM
Below is a list of entries, each paired with its recorded IC50 value.
Expressed in nM, but write only the number.

See these solved cases before continuing.
Using the record for C[N+](C)(C)C[C@@H](CC(=O)[O-])NC(=O)CCCCCCCCCc1cccc2ccccc12 , report its IC50. 21.2

Endpoint output: IC50 of C[N+](C)(C)C[C@@H](CC(=O)[O-])NC(=O)CCCCCCCOCc1ccc(C(F)(F)F)cc1 . Value? 32.1

***
Which IC50 reading was recorded for the molecule C[N+](C)(C)C[C@@H](CC(=O)[O-])NC(=O)CCCCCCCc1ccccc1 ? 538

Consider the molecule C[N+](C)(C)C[C@@H](CC(=O)[O-])NC(=O)CCCCCCCCCc1ccsc1 and give its measured IC50. 20.2

Name the reported IC50 value associated with the molecule C[N+](C)(C)C[C@@H](CC(=O)[O-])NC(=O)CCCCCCCCCCc1ccccc1 486

Quick one: IC50 of C[N+](C)(C)C[C@@H](CC(=O)[O-])NC(=O)CCCCCCCCc1ccccc1 ? 246

I would be grateful if you could share the reported IC50 for C[N+](C)(C)C[C@@H](CC(=O)[O-])NC(=O)CCCCCCCCCc1cccc(F)c1 . 8.1

Reported IC50 for COc1ccc(COCCCCCCCC(=O)N[C@H](CC(=O)[O-])C[N+](C)(C)C)cc1 : what is it? 53.7

---

# Experimental system: hL-CPT1 (Homo sapiens, UniProt P50416)
# Sequence (P50416 whole entry): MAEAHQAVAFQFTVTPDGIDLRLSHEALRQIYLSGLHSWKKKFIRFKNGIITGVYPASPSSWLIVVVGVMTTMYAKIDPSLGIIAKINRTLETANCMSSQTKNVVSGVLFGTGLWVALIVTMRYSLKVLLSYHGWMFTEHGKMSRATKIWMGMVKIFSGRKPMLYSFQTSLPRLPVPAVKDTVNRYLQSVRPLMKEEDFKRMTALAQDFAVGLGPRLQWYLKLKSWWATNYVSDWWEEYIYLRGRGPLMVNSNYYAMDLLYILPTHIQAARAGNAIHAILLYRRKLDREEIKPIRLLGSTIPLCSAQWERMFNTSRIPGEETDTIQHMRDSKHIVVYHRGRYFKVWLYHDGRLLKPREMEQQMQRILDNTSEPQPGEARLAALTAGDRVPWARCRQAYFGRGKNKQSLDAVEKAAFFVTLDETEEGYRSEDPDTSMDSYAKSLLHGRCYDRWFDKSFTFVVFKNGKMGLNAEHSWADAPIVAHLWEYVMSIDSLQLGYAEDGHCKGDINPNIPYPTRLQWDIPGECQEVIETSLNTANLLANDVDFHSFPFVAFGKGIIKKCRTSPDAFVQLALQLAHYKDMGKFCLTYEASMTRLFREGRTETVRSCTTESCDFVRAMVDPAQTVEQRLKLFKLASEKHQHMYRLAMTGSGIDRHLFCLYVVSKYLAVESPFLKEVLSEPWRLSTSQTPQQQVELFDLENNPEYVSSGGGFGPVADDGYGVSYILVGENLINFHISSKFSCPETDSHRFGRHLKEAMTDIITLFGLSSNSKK
# Assay protocol: hL-CPT1 inhibition (spectrophotometric DTNB CPT activity assay)
# Details: human liver CPT1 expressed in P. pastoris, cell extract; carnitine 500 μM, palmitoyl-CoA 80 μM, DTNB 300 μM
A collection of compounds and their measured IC50
Answer with a number only, understood to be in nM.

Need IC50 of C[N+](C)(C)C[C@@H](CC(=O)[O-])NC(=O)CCCCCCCCCc1ccc(C(F)(F)F)cc1 [Example 25] , thanks. 3070

Given the compound COc1ccc(COCCCCCCCC(=O)N[C@H](CC(=O)[O-])C[N+](C)(C)C)cc1 [Example 8] , what is its reported IC50? 7190

Which measured IC50 value corresponds to C[N+](C)(C)C[C@@H](CC(=O)[O-])NC(=O)CCCCCCCOCc1ccc(F)c(F)c1 [Example 1] ? 2190

If you can, please state the reported IC50 value of C[N+](C)(C)C[C@@H](CC(=O)[O-])NC(=O)CCCCCCCCCc1cccc(F)c1 [Example 26] . 1820
